% of Lc16Hc7: recorded values
target: T1, human IL-13 R130Q variant (R110Q of the mature chain) (human, UniProt P35225 35-146, Biotinylated on amines (NHS-LC-biotin, 4:1) in ELISA, panning and competition assays. The letters are unchanged.); test: single-point (10 nM) phage Fab ELISA on biotinylated IL-13 R130Q
T1 construct: R130Q counts from Met 1 of the signal peptide, R110Q on the mature chain; Bought from Peprotech; also called IL-13 R110Q; b-R130Q
T1 sequence (P35225 35-146 limits assumed, stated change not applied): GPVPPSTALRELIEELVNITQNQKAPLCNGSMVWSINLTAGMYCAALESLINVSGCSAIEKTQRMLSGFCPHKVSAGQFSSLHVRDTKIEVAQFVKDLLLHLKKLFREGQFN
Write down the numeric answer in % and omit the unit.

Examples with their reported % of Lc16Hc7 follow.
[
  {
    "Binder": "Phage # 30 Fab (IL-13-142 library) (Fab, V domains shown, Fab on phage pIX) VH: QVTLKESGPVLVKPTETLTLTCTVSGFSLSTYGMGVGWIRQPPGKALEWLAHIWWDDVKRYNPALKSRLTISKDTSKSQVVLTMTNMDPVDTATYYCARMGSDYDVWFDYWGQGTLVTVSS VL: DIQMTQSPSTLSASVGDRVTITCRASKSISKYLAWYQQKPGKAPKLLIYSGSTLQSGVPSRFSGSGSGTEFTLTISSLQPDDFATYYCQQHLWGPYTFGGGTKVEIK",
    "Scale unit": "%",
    "% of Lc16Hc7": 140
  },
  {
    "Binder": "Phage # 67 Fab (IL-13-142 library) (Fab, V domains shown, Fab on phage pIX) VH: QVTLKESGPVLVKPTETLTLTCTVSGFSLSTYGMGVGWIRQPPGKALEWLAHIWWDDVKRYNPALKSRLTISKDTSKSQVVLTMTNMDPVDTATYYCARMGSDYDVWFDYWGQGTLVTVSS VL: DIQMTQSPSTLSASVGDRVTITCRASKSISKYLAWYQQKPGKAPKLLIYSGSTLQSGVPSRFSGSGSGTEFTLTISSLQPDDFATYYCQQPIDGPYTFGGGTKVEIK",
    "Scale unit": "%",
    "% of Lc16Hc7": 127
  },
  {
    "Binder": "Phage # 29 Fab (IL-13-142 library) (Fab, V domains shown, Fab on phage pIX) VH: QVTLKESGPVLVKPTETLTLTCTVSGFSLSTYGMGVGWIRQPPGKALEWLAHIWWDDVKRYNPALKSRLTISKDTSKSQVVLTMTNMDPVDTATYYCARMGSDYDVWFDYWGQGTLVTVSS VL: DIQMTQSPSTLSASVGDRVTITCRASKSISKYLAWYQQKPGKAPKLLIYSGSTLQSGVPSRFSGSGSGTEFTLTISSLQPDDFATYYCQQHWMAPYTFGGGTKVEIK",
    "Scale unit": "%",
    "% of Lc16Hc7": 182
  },
  {
    "Binder": "Phage # 56 Fab (IL-13-142 library) (Fab, V domains shown, Fab on phage pIX) VH: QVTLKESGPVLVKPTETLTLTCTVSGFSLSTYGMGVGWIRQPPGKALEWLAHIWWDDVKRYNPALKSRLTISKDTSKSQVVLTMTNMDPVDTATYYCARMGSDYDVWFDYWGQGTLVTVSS VL: DIQMTQSPSTLSASVGDRVTITCRASKSISKYLAWYQQKPGKAPKLLIYSGSTLQSGVPSRFSGSGSGTEFTLTISSLQPDDFATYYCQQHWDAPYTFGGGTKVEIK",
    "Scale unit": "%",
    "% of Lc16Hc7": 234
  }
]

Which % of Lc16Hc7 value is on record for Phage # 32 Fab (IL-13-142 library) (Fab, V domains shown, Fab on phage pIX) VH: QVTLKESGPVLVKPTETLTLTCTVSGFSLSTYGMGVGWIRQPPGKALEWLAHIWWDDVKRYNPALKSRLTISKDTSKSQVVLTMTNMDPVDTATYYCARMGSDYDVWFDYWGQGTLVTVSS VL: DIQMTQSPSTLSASVGDRVTITCRASKSISKYLAWYQQKPGKAPKLLIYSGSTLQSGVPSRFSGSGSGTEFTLTISSLQPDDFATYYCQQHLGTPYTFGGGTKVEIK ?
228
